Experiment: Quantitative High-Throughput drug screen in 47 multiple myeloma cell lines against the NCATS MIPE library collection: KMS27_JCRB cell viability assay (AID 1918970); further: nearly all actives have a fitted effect of over 30% in size
Settings: KMS27 myeloma cells, CellTiter-Glo ATP viability, 48 h
Inconclusive results are not listed. The source made the active and inactive calls. The call rests on the fitted dose curve; in most records, active means well fitted cell-killing curve with a large enough effect; inconclusive means small, poorly fitted or top-dose-only effect, or effect the other way; inactive means no such curve, though single readings can be large or run the other way.
Please state which outcome applies, choosing from active, inactive

Some solved entries appear below for comparison.
Compound	Class name
O=c1[nH]nc(OCCCc2ccc(Cl)cc2)c(NCc2cccnc2)c1Br	active
O=C1CCCC(=O)C1C(=O)c1ccc(C(F)(F)F)cc1[N+](=O)[O-]	inactive
C=C1c2cccc(O)c2C(O)=C2C(=O)[C@@]3(O)C(O)=C(C(N)=O)C(=O)[C@@H](N(C)C)[C@@H]3[C@@H](O)[C@H]12	inactive
CC(NCCc1ccc(O)cc1)C(O)c1ccc(O)cc1 (centres undefined)	inactive
NC(=O)c1ncn([C@@H]2O[C@H](CO)[C@@H](O)[C@@H]2O)n1	inactive
CCCCCCOC(=O)N=C(N)c1ccc(NCc2nc3cc(C(=O)N(CCC(=O)OCC)c4ccccn4)ccc3n2C)cc1	active

Returns: the outcome recorded for C[C@@H]1CCO[C@H]2Cn3cc(C(=O)NCc4ccc(F)cc4F)c(=O)c(O)c3C(=O)N12 in this assay.
inactive

====

Assay: Cytotoxicity counterscreen for NFkB agonists and antagonists (AID 624476);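 further: cells exposed to compound for 48 hours; on the % scale 0 is the no-effect control and ±100 the full control effect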
Conditions: NFkB reporter cell line viability counterscreen; series mostly up to 46.1 µM
Results filed as inconclusive are left out. Calls of active or inactive are those of the source. Calls follow the shape of the dose curve; as a rule, active = well fitted curve in the direction sought with a large enough effect; inconclusive = small, poorly fitted or top-dose-only effect, or another doubt; inactive = no such curve, though single readings can be large or run the other way.

Smiles representation	outcome
O=C1CN2Cc3c(ccc(Cl)c3Cl)N=C2N1	inactive
CCC=CC[C@H]1C(=O)CC[C@@H]1CC(=O)OC	inactive
CCOC(=O)[C@@H](N)CCC(=O)N[C@@H](CSCc1ccccc1)C(=O)N[C@@H](C(=O)OCC)c1ccccc1	inactive

====

Experiment: qHTS profiling of the MIPE4 collection as inhibitors of Plasmodium falciparum (DD2) proliferation (Rep 2) (AID 743346)
Conditions: P. falciparum Dd2 in erythrocytes, SYBR Green DNA, 72 h; at 28.5 µM (top of the series) unless noted
Overview of recorded parasite growth, % of control (lower = inhibition) for various compounds
Give the value, in units of %, as a plain number.

Solved entries (count: 3):
Smiles representation	Numeric result
O=C(O)c1ccc(O)c2ncc(N3CCOCC3)cc12	16.8
Cc1cc(OCCCS(C)(=O)=O)cc(C)c1-c1cccc(COc2ccc3c(c2)OC[C@H]3CC(=O)O)c1	61.9
COc1ccc(Cn2ccc3ccc(C(=O)NO)cc32)cc1	8.17

Okay, next one:
Reported parasite growth, % of control (lower = inhibition), compound C=CCc1cccc(C=NNC(=O)CN2CCN(Cc3ccccc3)CC2)c1O : ____
19.3

====

Assay: qHTS Screen of the MIPE 4.0 Collection Against Ewings Sarcoma (EW8) (AID 1259255); further: nearly all actives have a fitted effect of over 35% in size; further: potency means the concentration at half of the fitted maximal effect;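 on viability: 100% = DMSO-treated cells and 0% = medium-only wells without cells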
Details: EW8 Ewing sarcoma viability, CellTiter-Glo, 48 h; series mostly up to 45.8 µM
Inconclusive results are not listed. Activity calls are given as the source filed them. Calls come from the whole dose curve; as a rule, active = well fitted inhibition curve with a large enough effect; inconclusive = small, poorly fitted or top-dose-only effect; inactive = no such curve, though single readings can be large or run the other way.
Value kind: Potency

Example results:
Molecule	Result
CCCCN(CCCC)CC(O)c1cc(Cl)cc2c1-c1ccc(Cl)cc1C2=Cc1ccc(Cl)cc1 (stereo not given)	inactive
CCC(c1ccc(O)cc1)C(CC)c1ccc(O)cc1 (stereo not given)	1.87 µM (active)
CCC=CC[C@H]1C(=O)CC[C@@H]1CC(=O)OC	inactive
CN(C)S(=O)(=O)c1ccc2c(c1)C(=Cc1cc3c([nH]1)CCCC3)C(=O)N2	8.33 µM (active)

Give the measured Potency of CC(C)n1c(C=C[C@H](O)C[C@H](O)CC(=O)O)c(-c2ccc(F)cc2)c2ccccc21 .
9.35 µM (active)
